System: K-562 leukemia
Assay explanation: NCI tumour cell line growth inhibition, 48 h; in the data active means GI50 below about 0.43 µM; inactive means the rest
Possible outcomes: T = active, F = inactive

INSERT INTO measurements (compound, group_label) VALUES
  ('CCOC(=O)c1ccccc1-c1c2ccc(=[N+](C)C)cc-2oc2cc(N(C)C)ccc12', 'T'),
  ('CN(C)CCNc1nc2ccccc2c2c(=O)c3ccccc3sc12', 'F'),
  ('Cn1ncc(-c2ccc3c(=O)[nH]nc(CN)c3c2)c1-c1c(F)cc2ccccc2c1C#N', 'F'),
  ('C=CCCC(=O)N1C=CC(=O)[C@H](O)[C@@H]1/C=C/c1ccccc1', 'F'),
  ('C1CC[N-]CC1.CC(=N\O)/C(C)=N/O.CC(=N\O)/C(C)=N/O.[CH2-]CCN1CCOCC1.[Co+2]', 'F'),
  ('Nc1c(C(=O)Nc2cccc(Br)c2)sc2nc3c(cc12)C(O)CCC3 (stereo not given)', 'T'),
  ('N#Cc1cccc(OCc2ccccc2COc2cccc(C#N)c2)c1', 'F'),
  ('Cc1c(C(=O)O[C@H]2[C@@H]3[C@H](C)CC[C@H]3[C@]3(C)O[C@@]2(C2CCCCC2)C[C@H]3OC(=O)CO)ccc2ccccc12', 'F'),
  ('O=S(=O)(O)ONC1=NCCN1', 'F'),
  ('CCc1nc(-n2c(-c3ccccc3)nc3ccccc3c2=O)nc(N)c1-c1ccc(Cl)cc1', 'F'),
  ('Cc1cc(S(=O)(=O)Nc2nc3cc(Cl)ccc3o2)c(SCc2ccccc2)cc1Cl', 'F'),
  ('Cc1sc2ncn(Cc3ccc(Cl)c(Cl)c3)c(=O)c2c1C', 'F'),
  ('CC(=O)C1(O)Cc2c(O)c3c(c(O)c2C(OC2CC(N)C(O)C(C)O2)C1)C(=O)c1ccccc1C3=O (stereo not given)', 'T'),
  ('C#Cc1cc2c(N)c(C(=O)c3cc(OC)c(OC)c(OC)c3)[nH]c2cc1OC', 'F'),
  ('Cn1ccnc1C[N-]Cc1nccn1C.O=[N+]([O-])[O-].O=[N+]([O-])[O-].[Cu+2]', 'F');

---

// TGI lookup, one value per entry
Tested on: UACC-257 melanoma
Assay explanation: NCI tumour cell line growth inhibition, 48 h
Readout type: TGI (µM)

INSERT INTO measurements (compound, lt_gt_eq, recorded_result) VALUES
  ('CN(C)CCNc1nc2ccccc2c2c(=O)c3ccccc3sc12', '=', 3.53),
  ('N=C(N)c1ccc(-c2ccc(-c3ccc(F)cc3)s2)s1', '=', 4.15),
  ('O=c1c2c3c(sc2n2c(-c4ccc(Br)cc4)nnc2n1Cc1ccccc1)CCCC3', '=', 11.9),
  ('C1C[OH+]CC[OH+]CC[OH+]CC[OH+]CC[OH+]CC[OH+]1.[Cl-].[Nb+5]', '>', 100),
  ('C=CCCC(=O)N1C=CC(=O)[C@H](O)[C@@H]1/C=C/c1ccccc1', '>', 32.5),
  ('NCCCC[C@H](N)C(=O)Nc1ccc(-c2nc3ccccc3s2)cc1Cl', '=', 32.4),
  ('CCN(CC)CCC(=O)c1ccc(Oc2ccc(F)cc2)cc1', '=', 34),
  ('O=C(c1ccccc1)C1C(C(=O)c2ccccc2)C(c2ccccc2)N(c2ccccc2)C1c1ccccc1 (stereo not given)', '>', 100),
  ('Cc1cc(C)c(N=Nc2c(O)c(S(=O)(=O)O)cc3cc(S(=O)(=O)O)ccc23)cc1C', '>', 100),
  ('COc1ccc(C(=O)O/N=C2/CCC/C2=C\c2ccccc2)cc1', '>', 100);

---

Test system: SR leukemia
Assay explanation: NCI tumour cell line growth inhibition, 48 h
Grouping by measured TGI is done with the following cut points: group 1 = under 3 µM, group 2 = from 3 µM up to 30 µM, group 3 = 30 µM and over

INSERT INTO results (compound, group_label) VALUES
  ('CCOC(=O)c1ccccc1-c1c2ccc(=[N+](C)C)cc-2oc2cc(N(C)C)ccc12', 'group 2'),
  ('CC1(C)CC[C@]2(C(=O)O)[C@H](O)C[C@]3(C)C(=CC[C@@H]4[C@@]5(C)CC[C@H](OC6OC(C(=O)O)C(O)C(O)C6O)C(C)(C)[C@@H]5CC[C@]43C)[C@@H]2C1 (stereo partly drawn)', 'group 3'),
  ('COc1ccc(C(=O)O/N=C2/CCC/C2=C\c2ccccc2)cc1', 'group 3'),
  ('OC1c2ccccc2C(O)C2OC12 (stereo not drawn)', 'group 3'),
  ('COc1cc(/C=N\O)nc(-c2ccccn2)c1', 'group 1'),
  ('CCN(CC)CCNc1ccc2ncn3c4cc(=O)ccc4c(O)c1c23', 'group 2'),
  ('CCCn1c(N)c(C(=O)CNc2ccc(I)cc2)c(=O)[nH]c1=O', 'group 2'),
  ('NS(=O)(=O)c1ccc(NC(=O)Nc2ccccc2F)cc1', 'group 3'),
  ('COc1ccc(/C=N/N=C(\[O-])c2ccncc2)cc1F.COc1ccc(/C=N\N=C(/[O-])c2ccncc2)cc1F.[Cu+2]', 'group 3'),
  ('O=C(CCl)Nc1cc(O)c2c(c1)C(=O)c1cccc(O)c1C2=O', 'group 1'),
  ('N#Cc1c2c(c(-c3cccs3)n(C3OC(CO)C(O)C(O)C3O)c1=S)CCc1ccccc1-2 (stereo not drawn)', 'group 3'),
  ('COc1ccc2nc3cccc(C(=O)NCCN(C)C)c3nc2c1', 'group 3'),
  ('Cc1nnc(-c2ccc(-c3nc4ccccc4o3)cc2)o1', 'group 3'),
  ('C[N+](C)([O-])CCCNc1ccnc2cccc([N+](=O)[O-])c12', 'group 3'),
  ('c1ccc(C2[C@@H]3CCCc4ccccc4C3=NN2c2ccccc2)cc1 (stereo partly drawn)', 'group 3'),
  ('O=C(Nc1ccc(I)cc1F)c1cc(I)ccc1O', 'group 3'),
  ('CC1(C)C2CCC(N)(C2)C1O (stereo not drawn)', 'group 3'),
  ('CC1(C)c2ccccc2C(O)C12CCC(=O)CC2 (stereo not drawn)', 'group 3'),
  ('COc1ccc(C2C(Cl)C(=O)N2NC(=O)Cc2ccccc2)cc1OC (stereo not drawn)', 'group 3'),
  ('O=C1OC(=O)C2C1C(c1ccccc1[N+](=O)[O-])C=C(c1ccco1)N2c1ccncc1 (stereo not drawn)', 'group 1'),
  ('Oc1ccc(Cl)cc1-c1cc(-c2ccc(F)cc2)n[nH]1', 'group 3'),
  ('COC(=O)C1C2CC3C(OC(=O)C31)C2OC(=O)[C@](OC)(c1ccccc1)C(F)(F)F (stereo partly drawn)', 'group 3'),
  ('OC(CN1CCCCC1)c1ccc(/C=C/c2ccc(Cl)cc2)cc1 (stereo not drawn)', 'group 3'),
  ('Cc1sc2nc3n(c(=O)c2c1C)N=C(c1ccc([N+](=O)[O-])cc1)CS3', 'group 3'),
  ('COc1ccc(C[C@@H]2OC3(C=CC(=O)C=C3)O[C@H]2Cc2ccc(OC)cc2)cc1', 'group 1'),
  ('CC(C)c1cccc(C(C)C)c1OS(=O)(=O)NC(=O)OC(C(F)(F)F)C(F)(F)F', 'group 3'),
  ('CCCCOc1ccc(/C=N/Nc2cc(C)nc3ccc(Cl)cc23)cc1', 'group 2'),
  ('C=CCN1CCC2(CC1)NC(=O)c1ccccc1O2', 'group 3'),
  ('O=C1c2cc([N+](=O)[O-])sc2C(=O)c2ccsc21', 'group 1'),
  ('COc1cccc(-c2cc(=O)c3cc(Cl)cnc3[nH]2)c1', 'group 2'),
  ('O=C1NC2(C=Cc3c(ccc4ccccc34)O2)Oc2ccccc21 (stereo not drawn)', 'group 3'),
  ('Cc1cc(S(=O)(=O)Nc2nc3cc(Cl)ccc3o2)c(SCc2ccccc2)cc1Cl', 'group 3');

---

System: CAKI-1 renal
Assay explanation: NCI tumour cell line growth inhibition, 48 h
Quick list: GI50 per entry.
Readout type: GI50

INSERT INTO results (compound, recorded_result) VALUES
  ('N#Cc1cccc(OCc2ccccc2COc2cccc(C#N)c2)c1', '11.1 µM'),
  ('ClCC#CCSc1ncnc2c1ncn2CC#CCCl', '1.15 µM'),
  ('CCOC(=O)c1ccccc1-c1c2ccc(=[N+](C)C)cc-2oc2cc(N(C)C)ccc12', '0.691 µM'),
  ('O=C1c2ccn(CCCCN3CCC(O)CC3)c2C(=O)c2c1c(O)c1ccccc1c2O', '13.9 µM'),
  ('O=C(Nc1ccc(I)cc1F)c1cc(I)ccc1O', '0.492 µM'),
  ('O=[N+]([O-])c1cc(F)c2cccnc2c1O', '3.82 µM'),
  ('COc1ccc(-c2c(N)n[nH]c2-c2cc(OC)c(OC)c(OC)c2)cc1', '0.381 µM'),
  ('Cn1ncc(-c2ccc3c(=O)[nH]nc(CN)c3c2)c1-c1c(F)cc2ccccc2c1C#N', '5.53 µM'),
  ('CCCn1c(N)c(C(=O)CNc2ccc(I)cc2)c(=O)[nH]c1=O', '6.53 µM'),
  ('COc1cc(C2c3cc4c(cc3[C@@H](Nc3ccc(N)cc3)C3COC(=O)[C@H]23)OCO4)cc(OC)c1O (some centres not stated)', '0.326 µM'),
  ('CN(C)CCNc1nc2ccccc2c2c(=O)c3ccccc3sc12', '3.11 µM'),
  ('N=C(N)c1ccc(-c2ccc(-c3ccc(F)cc3)s2)s1', '1.68 µM');
